All figures here come from patent US4565811A.

test-method-notes: Acute toxicity of US in the rat by oral administration
Assay type: in vivo
recorded-conditions: rat, in vivo, 4000 mg/kg
endpoint: mortality at 192 h (%)
Give bare numbers, in %.

According to the records, this compound CC(CCC(=O)O)C1CCC2C3C(OS(=O)(=O)O)CC4CC(OS(=O)(=O)O)CCC4(C)C3CCC12C (stereo not shown) displays mortality at 192 h of 0

* * *

test-method-notes: Acute toxicity of US in the rat by intravenous route
Assay type: in vivo
recorded-conditions: rat, in vivo, 750 mg/kg
endpoint: mortality at 192 h (%)
Answers are plain numbers, in %.

According to the records, this compound CC(CCC(=O)O)C1CCC2C3C(OS(=O)(=O)O)CC4CC(OS(=O)(=O)O)CCC4(C)C3CCC12C (stereo not shown) [US] displays mortality at 192 h of 20
